// reported relative viability per item
# Tested on: HCC-366
# TEST DETAILS: relative viability (nuclei count vs DMSO), 5 days (fraction); higher = more cells survive
# ASSAY SETUP: first compound 0.02 µM
In your answer, state the number alone without any accompanying words.

Check out these entries, answers already filled in.
CC(=O)O[C@@]12CO[C@@H]1C[C@H](O)[C@@]1(C)C(=O)[C@H](O)C3=C(C)[C@@H](OC(=O)[C@H](O)[C@@H](NC(=O)OC(C)(C)C)c4ccccc4)C[C@@](O)([C@@H](OC(=O)c4ccccc4)[C@H]21)C3(C)C [Docetaxel] + CS(=O)(=O)CCNCc1ccc(-c2ccc3ncnc(Nc4ccc(OCc5cccc(F)c5)c(Cl)c4)c3c2)o1 [Lapatinib] (partner 2 µM) | 0.011
CC(=O)O[C@@]12CO[C@@H]1C[C@H](O)[C@@]1(C)C(=O)[C@H](O)C3=C(C)[C@@H](OC(=O)[C@H](O)[C@@H](NC(=O)OC(C)(C)C)c4ccccc4)C[C@@](O)([C@@H](OC(=O)c4ccccc4)[C@H]21)C3(C)C [Docetaxel] + COc1cc2c(Oc3ccc(NC(=O)C4(C(=O)Nc5ccc(F)cc5)CC4)cc3F)ccnc2cc1OCCCN1CCOCC1 [Foretinib] (partner 0.25 µM) | 0.0329

Form: Entry = CC(=O)O[C@@]12CO[C@@H]1C[C@H](O)[C@@]1(C)C(=O)[C@H](O)C3=C(C)[C@@H](OC(=O)[C@H](O)[C@@H](NC(=O)OC(C)(C)C)c4ccccc4)C[C@@](O)([C@@H](OC(=O)c4ccccc4)[C@H]21)C3(C)C [Docetaxel] + O=C(CCCCCCC(=O)Nc1ccccc1)NO [Vorinostat] (partner 1 µM) | System = HCC-366 | relative viability = ____
0.0211

Give recorded relative viability with HCC-366 for the following molecule: CC(=O)O[C@@]12CO[C@@H]1C[C@H](O)[C@@]1(C)C(=O)[C@H](O)C3=C(C)[C@@H](OC(=O)[C@H](O)[C@@H](NC(=O)OC(C)(C)C)c4ccccc4)C[C@@](O)([C@@H](OC(=O)c4ccccc4)[C@H]21)C3(C)C [Docetaxel] + Nc1nc2[nH]cc(CCc3ccc(C(=O)N[C@@H](CCC(=O)O)C(=O)O)cc3)c2c(=O)[nH]1 [Pemetrexed] (partner 0.2 µM)
0.0202

Request - read-out relative viability | tested on HCC-366 | molecule CC(=O)O[C@@]12CO[C@@H]1C[C@H](O)[C@@]1(C)C(=O)[C@H](O)C3=C(C)[C@@H](OC(=O)[C@H](O)[C@@H](NC(=O)OC(C)(C)C)c4ccccc4)C[C@@](O)([C@@H](OC(=O)c4ccccc4)[C@H]21)C3(C)C [Docetaxel] + N=C(N)NC(=N)NCCc1ccccc1 [Phenformin] (partner 250 µM)
0.0275

API: value(readout= relative viability, system= HCC-366, query= CC(=O)O[C@@]12CO[C@@H]1C[C@H](O)[C@@]1(C)C(=O)[C@H](O)C3=C(C)[C@@H](OC(=O)[C@H](O)[C@@H](NC(=O)OC(C)(C)C)c4ccccc4)C[C@@](O)([C@@H](OC(=O)c4ccccc4)[C@H]21)C3(C)C [Docetaxel] + Cc1nc(NC(=O)N2CCC[C@H]2C(N)=O)sc1-c1ccnc(C(C)(C)C(F)(F)F)c1 [Alpelisib] (partner 2 µM) )
0.0109
